- targetDesc: IDH1 R132H (Homo sapiens, UniProt O75874, R132H)
- Sequence (O75874 whole entry R132H): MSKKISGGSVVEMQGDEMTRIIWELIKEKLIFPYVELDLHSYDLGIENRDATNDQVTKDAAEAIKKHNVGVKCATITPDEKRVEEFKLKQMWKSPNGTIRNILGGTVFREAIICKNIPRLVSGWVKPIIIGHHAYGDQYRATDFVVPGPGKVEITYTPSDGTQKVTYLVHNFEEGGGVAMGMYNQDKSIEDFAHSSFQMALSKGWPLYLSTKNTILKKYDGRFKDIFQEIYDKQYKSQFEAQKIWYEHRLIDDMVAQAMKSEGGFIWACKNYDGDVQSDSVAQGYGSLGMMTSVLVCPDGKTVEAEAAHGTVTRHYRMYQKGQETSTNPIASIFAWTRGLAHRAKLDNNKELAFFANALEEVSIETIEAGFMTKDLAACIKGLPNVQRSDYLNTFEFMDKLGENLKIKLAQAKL
- methodDescription: IDH1 R132H enzymatic assay (NADPH depletion coupled to diaphorase/resazurin)
- Assay type: biochemical
- conditionInfo: enzymatic inhibition, IDH1 R132H
pIC50: −log10 of the molar value.
Here the recorded pIC50 is given for each entry.

Check out these entries, answers already filled in.
[[record]]
compound = "CCc1cccc(CC)c1-n1c(CC(C)C)c(C(=O)N2CCNCC2)cc(-c2nc(-c3ccc(Cl)cc3)c(C#N)s2)c1=O [Compound 501]"
quantityname = "pIC50"
result = "6.00 to 6.52"

[[record]]
compound = "CCc1cccc(CC)c1-n1c(C2CCCO2)c(C(=O)N2CCNCC2)cc(-c2nc(-c3ccc(Cl)cc3)cs2)c1=O (stereo not shown) [Compound 457]"
quantityname = "pIC50"
result = "> 6.52"

[[record]]
compound = "CCOc1cccc(OCC)c1-n1c2c(cc(-c3nc(-c4ccc(Cl)cc4)cs3)c1=O)C(=O)CC(C)(C)C2 [Compound 609]"
quantityname = "pIC50"
result = "6.00 to 6.52"

[[record]]
compound = "O=c1c(-c2nc(-c3ccc(Cl)cc3)cs2)cc2c(O)cccc2n1-c1cccnc1 [Compound 514]"
quantityname = "pIC50"
result = "< 4.70"

[[record]]
compound = "COc1cc(Cl)ccc1-n1c2c(cc(-c3nc(-c4ccc(Cl)cc4)cs3)c1=O)C(=O)CC(C)(C)C2 [Compound 579]"
quantityname = "pIC50"
result = "4.70 to 5.30"

[[record]]
compound = "CCc1cccc(CC)c1-n1c(CC(C)C)c(C(=O)N2CCNCC2)cc(-c2ccn(Cc3ccc(Cl)cc3)n2)c1=O [Compound 487]"
quantityname = "pIC50"
result = "< 4.70"


# next compound below
Quick check: pIC50 of CCc1cccc(CC)c1-n1c(CC2CCCO2)c(C(=O)N2CCNCC2)cc(-c2nc(-c3ccc(Cl)cc3)cs2)c1=O (stereo not shown) [Compound 506] ?
> 6.52
